target.of.assay: T1, EsCas13d, nuclease-dead (Eubacterium siraeum, UniProt B0MS50, R295A;H300A;R849A;H854A)
T1 sequence: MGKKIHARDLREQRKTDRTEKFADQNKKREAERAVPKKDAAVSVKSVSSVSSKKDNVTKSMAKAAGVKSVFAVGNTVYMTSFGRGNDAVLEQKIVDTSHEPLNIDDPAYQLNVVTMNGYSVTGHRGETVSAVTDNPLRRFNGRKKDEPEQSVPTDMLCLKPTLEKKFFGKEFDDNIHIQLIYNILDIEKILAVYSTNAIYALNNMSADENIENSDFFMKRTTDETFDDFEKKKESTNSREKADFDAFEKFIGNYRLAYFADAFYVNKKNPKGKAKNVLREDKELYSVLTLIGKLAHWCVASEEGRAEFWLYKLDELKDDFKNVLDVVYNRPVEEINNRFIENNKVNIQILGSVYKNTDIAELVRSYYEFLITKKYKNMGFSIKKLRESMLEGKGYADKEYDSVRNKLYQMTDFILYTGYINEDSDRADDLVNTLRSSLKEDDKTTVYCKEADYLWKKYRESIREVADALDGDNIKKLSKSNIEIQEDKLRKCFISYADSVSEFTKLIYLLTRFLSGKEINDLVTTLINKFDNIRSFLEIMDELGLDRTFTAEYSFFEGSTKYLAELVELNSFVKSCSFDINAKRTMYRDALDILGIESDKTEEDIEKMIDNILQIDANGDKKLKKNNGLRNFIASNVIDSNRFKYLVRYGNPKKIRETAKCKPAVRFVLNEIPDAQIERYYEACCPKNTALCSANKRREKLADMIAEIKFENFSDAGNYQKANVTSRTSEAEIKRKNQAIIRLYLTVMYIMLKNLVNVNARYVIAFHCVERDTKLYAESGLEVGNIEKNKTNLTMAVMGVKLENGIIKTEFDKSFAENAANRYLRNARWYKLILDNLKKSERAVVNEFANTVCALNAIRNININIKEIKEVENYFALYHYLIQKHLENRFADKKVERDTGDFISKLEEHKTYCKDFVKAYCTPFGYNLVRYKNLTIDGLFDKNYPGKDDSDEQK
assay.details: crRNA (strand 1, pre-loaded); Mg2+; 40 mM Tris-HCl pH 7.5, 150 mM NaCl, 6 mM MgCl2, 1 mM DTT, 0.1% Tween-20, 0.2 mg/ml BSA; 25 C; 10 min per concentration, then washed
protocol.conditions: tags: His6-TwinStrep-SUMO cleaved; N-terminal SNAP kept (SNAP-Surface 488); label: 3' end held by stalled T7 RNA polymerase
measurement.kind: Kd (nM)

INSERT INTO measurements (binder, measurement_kind, value) VALUES
  ('target 2 MT 5''PFS GAU 3''PFS UGA (mixed) RNA 1: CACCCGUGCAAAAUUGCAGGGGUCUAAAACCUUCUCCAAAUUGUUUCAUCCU RNA 2: GGGAAUGGAUCCACAUCUACGAAUUCGAUAGGAUGAAACAAUUUGGAGAAGUGAAGAUCGGAAGAGCACACGU', 'Kd', 19),
  ('target 2 MT 5''PFS GAC 3''PFS AGA (mixed) RNA 1: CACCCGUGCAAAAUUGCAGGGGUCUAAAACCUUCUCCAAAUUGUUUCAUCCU RNA 2: GGGAAUGGAUCCACAUCUACGAAUUCGACAGGAUGAAACAAUUUGGAGAAGAGAAGAUCGGAAGAGCACACGU', 'Kd', 16);
